System: SK-MEL-28 melanoma
TEST_NAME: NCI-60 one-dose screen, 48 h
PROTOCOL_CONDITIONS: 10 µM unless noted
About 83,000 compounds went through this panel and 20% of them were active in at least one assay; those are over-represented in the sample as a whole. Calls of active or inactive are those of the source. The calls were made as follows: active = growth percent below 10; inactive = the rest.
Respond only with the outcome that fits, drawn from 1.0 for active, 0.0 for inactive

Could you please tell me the result logged for O=C/C=C/c1ccc([N+](=O)[O-])cc1 in this assay? 0.0

Could you please tell me the result logged for CC12CCC(O)CC1=CCC1C2CCC2(C)C3=NN=CC3CC12 (configuration not stated) in this assay? 0.0

Could you please tell me the result logged for CN1CSC(=S)N(Cc2ccccc2)C1 in this assay? 0.0

Could you please tell me the result logged for N#CC1c2ccccc2C=CN1C(=O)CCCl (configuration not stated) in this assay? 0.0

Could you please tell me the result logged for CCOc1ccc2c(c1)/C(=C\C=C\C1CC(C)C3CC(OCC)CCC3N1CC)CC(C)N2CC (configuration not stated) in this assay? 0.0

Could you please tell me the result logged for CC(CSc1n[nH]c(=S)s1)c1ccccc1 (configuration not stated) in this assay? 0.0

Could you please tell me the result logged for COc1ccc2nc3cc(Cl)ccc3c(NCCCCCN3CCCCC3)c2c1 in this assay? 1.0

Could you please tell me the result logged for O=C(Cc1ccccc1)C(F)(F)F in this assay? 0.0

Could you please tell me the result logged for O=C(c1ccccc1)C(Br)C(Br)c1ccccc1 (configuration not stated) in this assay? 0.0

Could you please tell me the result logged for O=[N+]([O-])c1ccc(N2CCN(Cc3ccccc3)CC2)c2c1no[n+]2[O-] in this assay? 0.0

Could you please tell me the result logged for COC(=O)c1cc([N+](=O)[O-])cc([N+](=O)[O-])c1Cl in this assay? 0.0

Could you please tell me the result logged for C/C(=N\NC(=S)N1CC2CCC(CC2)C1)c1ccccn1 in this assay? 0.0

Could you please tell me the result logged for CCc1oc2ccccc2c1C(=O)c1cc(Br)c(O)c(Br)c1 in this assay? 0.0

Could you please tell me the result logged for Clc1ccc(Cc2nc3ccccc3s2)cc1 in this assay? 0.0

Could you please tell me the result logged for CCCCCCCCCCCC1N=C(N)N=C(N)N1c1cccc(Br)c1 (configuration not stated) in this assay? 0.0

Could you please tell me the result logged for Cc1ccccc1NC(=O)Cc1csc2[n+]1C(=O)/C(=C/c1ccc([N+](=O)[O-])cc1)S2 in this assay? 0.0

Could you please tell me the result logged for OC(Cc1cc(CC(O)(C(F)(F)F)C(F)(F)F)nc(CC(O)(C(F)(F)F)C(F)(F)F)c1)(C(F)(F)F)C(F)(F)F in this assay? 0.0

* * *

Please go through the items and note down their growth.
System: NCI-H226 lung
TEST_NAME: NCI-60 one-dose screen, 48 h (100 = growth as untreated, 0 = no growth, -100 = all killed)
PROTOCOL_CONDITIONS: 10 µM unless noted
This is part of a sample that, as a whole, favours compounds with a hit. Of some 83,000 tested, about 20% had one in any assay. Where a SMILES comes first, the peptide text is derived from it. [ ]: non-standard residue; d: D form. ξ: configuration not given here. ξD = NC(CC(=O)O)C(=O)O
Numbers only here, please. The scale is %.

Given the entry CN(C)c1ccc2cc3c(cc2c1)Oc1ccccc1N3.[Cl][Zn][Cl] , report its measured growth. 91.2

Given the entry CC1C(c2ccccc2)OCCN1C(=S)Nc1ccc(S(=O)(=O)N2CCCCC2)cc1 (stereo not drawn) , report its measured growth. 91.6

Given the entry CCCC[n+]1c(/C=C\c2c(OC)cc(OC)cc2OC)ccc2ccccc21 , report its measured growth. 9.84

Given the entry CCCCCCCCCCCCCCCCCC1=NCCCN1CCO , report its measured growth. 103

Given the entry CCN(CC)c1ccc(/C=C\C(=O)c2ccc(NC(C)=O)cc2)cc1 , report its measured growth. 99.6

Given the entry CCCCN(CCCC)CCCCCCCCCCO , report its measured growth. 105

Given the entry Nc1nc(N)c2cc(Sc3cccc(C(F)(F)F)c3)ccc2n1 , report its measured growth. 57.6

Given the entry N=C(N)Sc1cccc[n+]1[O-] , report its measured growth. 78.7

Given the entry O=C1/C(=C\c2ccc([N+](=O)[O-])cc2)CS(=O)(=O)C/C1=C/c1ccc([N+](=O)[O-])cc1 , report its measured growth. -67.2

Given the entry Oc1cc(Cl)ccc1Cc1ccc(Cl)cc1O , report its measured growth. 96.6

Given the entry Nc1ccc(C(=O)/C=C/c2ccccc2)cc1 , report its measured growth. 105

Given the entry Cc1cc(Br)c2nsnc2c1[N+](=O)[O-] , report its measured growth. 44.4

Given the entry O=C(c1ccccc1)N(CCCl)C(=O)N(CCCl)C(=O)c1ccccc1 , report its measured growth. 93.7

Given the entry CCCCCCCCCCCC(=O)OC(C)C(=O)NCCCC (stereo not drawn) , report its measured growth. 86

Given the entry Cc1cc(C(=C2C=CC(=Nc3ccccc3)C=C2)c2ccc(Nc3ccccc3)cc2)ccc1N , report its measured growth. -84.4

Given the entry CCOc1cc(F)c([N+](=O)[O-])cc1[N+](=O)[O-] , report its measured growth. 95.3

Given the entry NCC(=O)NC(CC(=O)O)C(=O)O (stereo not drawn) (H-Gly-[ξD]-OH) , report its measured growth. 100

Given the entry Nc1nc(-c2ccccc2)nc(N)c1N=O , report its measured growth. 90.4

* * *

Tested on: CAKI-1 renal
TEST_NAME: NCI-60 one-dose screen, 48 h
PROTOCOL_CONDITIONS: 10 µM unless noted
Compounds without any hit were thinned out: in the full panel of roughly 83,000, 20% have a hit. Activity calls are given as the source filed them. How the source made its calls: active means growth percent below 10; inactive means the rest.
Respond only with the outcome that fits, drawn from active, inactive

Could you please tell me the result logged for CCCCCCCCCCCC[n+]1ccc(CCCCCCCCC)cc1 in this assay? inactive

Could you please tell me the result logged for CN(C)c1ccc(C(=C2C=CC(=[N+](C)C)C=C2)c2ccc(N(C)C)cc2)cc1 in this assay? active

Could you please tell me the result logged for CCN1/C(=C/C(C)=C/c2sc3ccc4ccccc4c3[n+]2CC)Sc2ccc3ccccc3c21 in this assay? active

* * *

System: MOLT-4 leukemia
TEST_NAME: NCI-60 one-dose screen, 48 h
PROTOCOL_CONDITIONS: 10 µM unless noted
The panel holds about 83,000 compounds, 20% with a hit somewhere; the sample as a whole holds those more often. Calls of active or inactive are those of the source. How the source made its calls: active means growth percent below 10; inactive means the rest. Where a SMILES comes first, the peptide text is derived from it. [ ]: non-standard residue; d: D form. ξ: configuration not given here. ξD = NC(CC(=O)O)C(=O)O
Respond only with the outcome that fits, drawn from active, inactive

Could you please tell me the result logged for Nc1nc(-c2ccccc2)nc(N)c1N=O in this assay? inactive

Could you please tell me the result logged for CC1=CC(=O)C=CC1(C)C(Cl)(Cl)Cl (configuration not stated) in this assay? inactive

Could you please tell me the result logged for Cc1cc(N/N=C/c2ccccn2)nc2ccccc12 in this assay? active

Could you please tell me the result logged for COc1cccc2c1C(=O)c1c(O)c3c(c(O)c1C2=O)C[C@@](O)(C(=O)CO)C[C@@H]3OC1CC(OC(C)=O)C(OC(C)=O)C(C)O1 (some centres not stated) in this assay? active

Could you please tell me the result logged for CC(=O)c1ccc2c(c1)CCc1ccccc1-2 in this assay? inactive

Could you please tell me the result logged for OC(c1cc2ccc(C(F)(F)F)cc2c2cc(C(F)(F)F)ccc12)C1CCCCN1 (configuration not stated) in this assay? active

Could you please tell me the result logged for Cc1ccc(/C=C2\CNC/C(=C\c3ccc(C)cc3)C2=O)cc1 in this assay? active

Could you please tell me the result logged for Cc1cc2nc(CC(=O)c3ccncc3)c(=O)[nH]c2cc1C in this assay? inactive

Could you please tell me the result logged for O=C(O)c1cc2c(s1)C(=O)c1sccc1C2=O in this assay? inactive

Could you please tell me the result logged for CC(/C=N/NC(N)=S)Cc1ccc(C(C)C)cc1 (configuration not stated) in this assay? inactive

Could you please tell me the result logged for CCOC(=O)C1=C(C(=O)c2ccccc2)C(c2cccc([N+](=O)[O-])c2)C(C(=O)c2ccccc2)=C(C(=O)OCC)N1 in this assay? inactive

Could you please tell me the result logged for O=C1C=C(Cl)C(=O)c2ccccc21 in this assay? inactive

Could you please tell me the result logged for CC(=O)Nc1ccc(C(=O)CCl)cc1 in this assay? inactive

Could you please tell me the result logged for NCC(=O)NC(CC(=O)O)C(=O)O (configuration not stated) (H-Gly-[ξD]-OH) in this assay? inactive

Could you please tell me the result logged for CCCCCCCCCCCC[n+]1ccccc1 (tested in a mixture with another compound) in this assay? active

Could you please tell me the result logged for S=C1SCN(Cc2cccs2)CN1Cc1cccs1 in this assay? inactive

Could you please tell me the result logged for O=C(NNc1ccccc1)OCc1ccccc1 in this assay? inactive

Data provenance: PubChem BioAssay (NCI)
